Target: FLK-1 receptor (Mus musculus, UniProt P35918)
Construct: expressed in transfected cells; host or cells: NIH3T3 C7#3
Sequence (P35918 20-1345): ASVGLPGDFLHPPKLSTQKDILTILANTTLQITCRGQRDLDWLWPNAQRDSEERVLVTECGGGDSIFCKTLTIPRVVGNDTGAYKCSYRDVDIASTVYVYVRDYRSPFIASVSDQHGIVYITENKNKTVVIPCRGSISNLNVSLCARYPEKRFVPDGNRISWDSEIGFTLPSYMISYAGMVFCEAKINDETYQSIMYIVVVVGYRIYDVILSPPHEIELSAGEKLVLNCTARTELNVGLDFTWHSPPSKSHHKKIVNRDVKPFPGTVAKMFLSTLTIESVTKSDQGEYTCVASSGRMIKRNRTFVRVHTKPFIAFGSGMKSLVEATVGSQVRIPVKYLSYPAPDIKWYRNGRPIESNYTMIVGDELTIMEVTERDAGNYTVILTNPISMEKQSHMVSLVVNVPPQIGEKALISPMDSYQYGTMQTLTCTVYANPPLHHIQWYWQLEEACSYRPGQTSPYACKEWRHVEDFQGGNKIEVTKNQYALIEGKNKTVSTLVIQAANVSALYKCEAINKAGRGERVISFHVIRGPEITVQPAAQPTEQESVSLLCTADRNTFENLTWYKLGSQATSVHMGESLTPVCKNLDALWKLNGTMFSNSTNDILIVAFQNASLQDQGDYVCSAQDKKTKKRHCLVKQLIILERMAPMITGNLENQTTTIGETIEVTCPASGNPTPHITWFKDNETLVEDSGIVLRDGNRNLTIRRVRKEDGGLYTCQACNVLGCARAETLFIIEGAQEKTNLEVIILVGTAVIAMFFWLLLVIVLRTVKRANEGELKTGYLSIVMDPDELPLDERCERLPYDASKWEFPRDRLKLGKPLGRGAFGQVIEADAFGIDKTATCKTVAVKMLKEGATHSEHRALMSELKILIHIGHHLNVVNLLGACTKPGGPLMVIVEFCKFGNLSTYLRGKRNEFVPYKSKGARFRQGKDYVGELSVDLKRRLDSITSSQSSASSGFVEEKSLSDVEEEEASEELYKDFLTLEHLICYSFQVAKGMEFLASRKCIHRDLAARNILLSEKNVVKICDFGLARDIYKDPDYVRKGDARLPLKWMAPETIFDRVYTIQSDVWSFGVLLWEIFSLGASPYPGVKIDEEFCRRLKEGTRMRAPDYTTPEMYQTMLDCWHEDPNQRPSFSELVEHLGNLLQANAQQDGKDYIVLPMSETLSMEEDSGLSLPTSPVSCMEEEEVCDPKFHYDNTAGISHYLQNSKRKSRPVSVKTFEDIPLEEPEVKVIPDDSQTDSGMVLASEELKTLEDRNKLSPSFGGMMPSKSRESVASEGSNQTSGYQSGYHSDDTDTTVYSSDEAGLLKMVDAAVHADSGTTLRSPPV
Assay: FLK-1 ELISA (kinase activity of the FLK-1 receptor in FLK-1/NIH3T3 cells, VEGF stimulated)
Format: cell-based
Readout Label: Fik Kinase %Inhibition (%)
# value in %; strip the unit string

Worked cases, Fik Kinase %Inhibition given:
| Structure Smiles | System Name | Fik Kinase %Inhibition [%] |
| --- | --- | --- |
| Cc1c(Br)ccc2c1C(=Cc1cc3ccccc3o1)C(=O)N2 | FLK-1 receptor (Mus musculus, UniProt P35918) | -1.2 |
| CC(C)(C)c1cc(C=C2C(=O)Nc3ccc(S(=O)(=O)N4CCOCC4)cc32)ccc1OCc1ccccc1 | FLK-1 receptor (Mus musculus, UniProt P35918) | 11.6 |
| CNS(=O)(=O)c1ccc2c(c1)C(=C1C(=O)Nc3ccccc31)C(=O)N2 | FLK-1 receptor (Mus musculus, UniProt P35918) | 14.4 |
| COc1cccc(O)c1C=C1C(=O)Nc2ccc(Br)c(C)c21 | FLK-1 receptor (Mus musculus, UniProt P35918) | -8.0 |

query: Item `O=C1Nc2ccc(CCCl)cc2C1=Cc1ccc(F)cc1Cl` : provide Fik Kinase %Inhibition
result: 18.1

query: Item `Cc1c(Br)ccc2c1C(=Cc1ccccc1)C(=O)N2` : provide Fik Kinase %Inhibition
result: 12.2
